Dear all, this message contains GI50 results, target or system A498 renal.
parameter: GI50

- molecule: "Nc1[nH]c(=O)ncc1CO"
  result: "> 100 µM"
- molecule: "CC1(C)CC[C@]2(C(N)=O)CC[C@]3(C)C(=CC[C@@H]4[C@@]5(C)C/C(=C/c6ccncc6)C(=O)C(C)(C)[C@@H]5CC[C@]43C)[C@@H]2C1"
  result: "1.7 µM"
- molecule: "COc1cc([N+](=O)[O-])c2ncccc2c1[N+](=O)[O-]"
  result: "12.3 µM"
- molecule: "O=C(Nc1ccccc1C(=O)N/N=C(\\c1ccccc1)c1ccccn1)c1ccc(F)cc1"
  result: "1.37 µM"
- molecule: "O=c1c2ccccc2oc2ccc(OCCCCCCN3CCCCCC3)cc12"
  result: "2.49 µM"
- molecule: "C=[CH][Sn]([CH]=C)([O]c1cccc2cccnc12)[O]c1cccc2cccnc12"
  result: "5.88 µM"
- molecule: "O=c1[nH]c2ccccc2n1-c1n[nH]c2ccccc12"
  result: "51.3 µM"
- molecule: "COc1ccccc1CNCCCCCCCCCCCCN1C(=O)c2ccc3c4c(ccc(c24)C1=O)C(=O)N(CCCCCCCCCCCCNCc1ccccc1OC)C3=O"
  result: "0.806 µM"
- molecule: "COc1cccc(/C=C/C(=O)c2cc3c(N)c(C(=O)Nc4cccc5ccccc45)sc3nc2C)c1"
  result: "0.885 µM"
- molecule: "Oc1ccc(Cl)cc1Cc1cc(Cl)ccc1O"
  result: "1.98 µM"
- molecule: "CCC(CC(C)C)Nc1ccc(NC(CC)CC(C)C)cc1 (stereo not drawn)"
  result: "23.8 µM"
- molecule: "CCOc1cc(-c2ccc[nH]2)[nH]c1/C=C1\\N=C(C)C(C(=O)OC)=C1C"
  result: "0.47 µM"
- molecule: "CC(=O)N(Cc1ccccc1)c1ccccc1I(=O)=O"
  result: "49.7 µM"

----------
System: HCC-2998 colon
parameter: GI50

- compound: "O=C(Cc1csc2nc(-c3ccc(Br)cc3)cn12)N/N=C/c1ccc(O)cc1"
  result: "14.6 µM"
- compound: "CC1(C)OC2C(COS(N)(=O)=O)SC(n3cnc4cncnc43)C2O1 (configuration not stated)"
  result: "> 100 µM"
- compound: "COc1ccccc1CNCCCCCCCCCCCCN1C(=O)c2ccc3c4c(ccc(c24)C1=O)C(=O)N(CCCCCCCCCCCCNCc1ccccc1OC)C3=O"
  result: "> 50 µM"
- compound: "CSC1=NCC2(S1)c1ccccc1N(C(=O)OC(C)(C)C)C2N1CCCCC1 (configuration not stated)"
  result: "31 µM"
- compound: "Cc1nc(N)nc2ccccc12"
  result: "> 100 µM"
- compound: "CCC(CC(C)C)Nc1ccc(NC(CC)CC(C)C)cc1 (configuration not stated)"
  result: "19.3 µM"
- compound: "Cc1cc(C(O)CN(C)C)cc2c1ccc1cc(C(C)C)ccc12 (configuration not stated)"
  result: "1.57 µM"
- compound: "Nc1ccc(S(=O)(=O)Nc2cnc3c(Cl)cccc3n2)cc1"
  result: "149 µM"
- compound: "O=c1c2ccccc2oc2ccc(OCCCCCCN3CCCCCC3)cc12"
  result: "2.97 µM"
- compound: "O=c1[nH]c2ccccc2n1-c1n[nH]c2ccccc12"
  result: "31.9 µM"
- compound: "Cc1cc(Cl)ccc1NS(=O)(=O)c1ccc(-c2cnc(C3CC3)o2)cc1"
  result: "0.463 µM"
- compound: "CC/C=C\\C/C=C\\C[C@H](O)C/C=C1/C(=O)C=C[C@@H]1C/C=C\\CCCC(=O)OC"
  result: "2.03 µM"

All values here come from PubChem BioAssay (NCI).
